Quick list: Herbicidal Effect Scirpus juncoides per entry.
# System: Scirpus juncoides
# protocol-text: Submerged treatment test; also: ranges in brackets are in %
# Type: in vivo
# condition-label: 10 g/a active ingredient, treated 5th day from sowing, examined on the 2.8th day from treatment, herbicidal index

Some solved cases for reference:
compound	target-under-test	Herbicidal Effect Scirpus juncoides
CCOC(=O)C(Cl)Cc1cc(N2C(=O)c3ccccc3C2=O)c(F)cc1Cl (centres unmarked) [Compound 5]	Scirpus juncoides	4 (71-90)
CC(C)OC(=O)C(Cl)Cc1cc(N2C(=O)c3ccccc3C2=O)c(F)cc1Cl (centres unmarked) [Compound 7]	Scirpus juncoides	5 (91-100)
CCOC(=O)C(Cl)Cc1cc(N2C(=O)c3ccc(F)cc3C2=O)c(F)cc1Cl (centres unmarked) [Compound 15]	Scirpus juncoides	3 (51-70)
C=CCNC(=O)C(Cl)Cc1cc(N2C(=O)c3ccccc3C2=O)c(F)cc1Cl (centres unmarked) [Compound 12]	Scirpus juncoides	1 (6-30)
CCCOC(=O)C(Cl)Cc1cc(N2C(=O)c3ccccc3C2=O)c(F)cc1Cl (centres unmarked) [Compound 6]	Scirpus juncoides	5 (91-100)

Check the records and state Herbicidal Effect Scirpus juncoides for O=C(OC1CCCC1)C(Cl)Cc1cc(N2C(=O)c3ccccc3C2=O)c(F)cc1Cl (centres unmarked) [Compound 9]
5 (91-100)

Check the records and state Herbicidal Effect Scirpus juncoides for CN(C)C(=O)C(Cl)Cc1cc(N2C(=O)c3ccccc3C2=O)c(F)cc1Cl (centres unmarked) [Compound 14]
3 (51-70)

Check the records and state Herbicidal Effect Scirpus juncoides for CCCCOC(=O)C(Cl)Cc1cc(N2C(=O)c3ccccc3C2=O)c(F)cc1Cl (centres unmarked) [Compound 8]
5 (91-100)
